RUN_DESCRIPTION: NCI Yeast Anticancer Drug Screen. Data for the mlh1 strain (AID 171);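 note: 0% = growth of vehicle-treated control cultures of the same strain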
CONDITION_SET: S. cerevisiae mlh1 strain growth inhibition; at 33.0 µM; hits give high values
About 79,000 compounds went through this panel and 15% of them were active in at least one assay; those are over-represented in the sample as a whole.
Classification field: enter 1.0 for growth inhibition values not below 50%, 0.0 for values below it.

Example cases with answers are listed next.
# COMPOUND, LABEL_VALUE
records = [
    ("Nc1ccc2ncc(Nc3ccc(Cl)c(Cl)c3)nc2c1", 1.0),
    ("CC1(C)CC(=O)C(C(CC(c2ccccc2)c2cc3c(cc2O)OCO3)C2=C(O)CC(C)(C)CC2=O)=C(O)C1 (stereo not given)", 1.0),
    ("COC(=O)C1(N2CCOCC2)CCC([C@@H](c2ccccc2)C(C)[N+](=O)[O-])C1 (stereo not given in full)", 0.0),
    ("CCN(CC)c1ccc(N=Nc2cc(S(=O)(=O)O)ccc2O)c(O)c1", 0.0),
    ("CCOc1nc(OCC)nc(-c2cccn2-c2ccccc2)n1", 0.0),
]

Please tell me: is the compound `Cc1ccc(SSc2ccc(C)cc2[N+](=O)[O-])c([N+](=O)[O-])c1` at or over 50% in terms of growth inhibition?
1.0

Please tell me: is the compound `CC(=O)O/N=C/c1c2ccccc2cc2ccccc12` at or over 50% in terms of growth inhibition?
0.0

Please tell me: is the compound `Cc1cc(N(CCOS(C)(=O)=O)CCOS(C)(=O)=O)ccc1C=O` at or over 50% in terms of growth inhibition?
1.0

Please tell me: is the compound `COc1ccc2nc3cccc([N+](=O)[O-])c3c(NCCCO)c2c1` at or over 50% in terms of growth inhibition?
1.0

Please tell me: is the compound O=C1c2ccccc2-c2ccc(NC(=O)C3CCCCC3C(=O)O)cc21 (stereo not given) at or over 50% in terms of growth inhibition?
0.0

###

RUN_DESCRIPTION: NCI Yeast Anticancer Drug Screen. Data for the bub3 strain (AID 167)
CONDITION_SET: S. cerevisiae bub3 mutant strain, at 50.0 µM (retest, dose inferred, filed as 5.0), hits give high values
This is part of a sample that, as a whole, favours compounds with a hit. Of some 79,000 tested, about 15% had one in any assay. Calls of active or inactive are those of the source. No stated cut-off is given here; in the data, active means growth inhibition above about 70%; inactive means the rest.
Provide the recorded growth inhibition for the entries that follow.

For every item below, please supply its growth inhibition.
1. CC1C=CN(N(C)C)C2=C1C(=O)c1cnccc1C2=O (stereo unspecified)
2. [N-]=[N+]=NC1CC(n2ccc(=O)[nH]c2=O)OC1COC(c1ccccc1)(c1ccccc1)c1ccccc1 (stereo unspecified)

1: 6% (inactive); 2: 76% (active)

For every item below, please supply its growth inhibition.
1. O=C(CCC(=O)c1ccc(O)cc1)Oc1ccc(O)cc1
2. CCCCCCCCCCCCCCCCCN
3. [Cl][Pt+2][Cl].[NH-]CC1(C[NH-])CCCCC1
4. CCCCOc1ccc(Nc2c3ccccc3nc3ccccc23)cc1

1. 67% (inactive)
2. 97% (active)
3. 100% (active)
4. 98% (active)

###

RUN_DESCRIPTION: NCI Yeast Anticancer Drug Screen. Data for the bub3 strain (AID 167)
CONDITION_SET: S. cerevisiae bub3 mutant strain, at 33.0 µM, hits give high values
This is part of a sample that, as a whole, favours compounds with a hit. Of some 79,000 tested, about 15% had one in any assay. Activity calls are given as the source filed them. No stated cut-off is given here; in the data, active means growth inhibition above about 70%; inactive means the rest.
ASSAY_METRIC: growth inhibition

Consider the worked cases shown below.
# MOLECULE, RESULT
records = [
    ("COc1cc(C(C)(C)C)cc(OC)c1C(O)(c1c(OC)cc(C(C)(C)C)cc1OC)c1c(OC)cc(C(C)(C)C)cc1OC", "94% (active)"),
    ("CCCCOc1ccc(Nc2c3ccccc3nc3ccccc23)cc1", "99% (active)"),
    ("CN(C)c1ccc(C(c2ccc(Cl)cc2)c2ccc(N(C)C)cc2)cc1", "93% (active)"),
    ("Cc1ccc(C(C)C)c(C(=C2C=CC(=[N+](C)C)C=C2)c2c(C(C)C)ccc(C)c2O)c1O", "93% (active)"),
    ("COc1ccc(CCN2C(=O)C=CC2=O)cc1OC", "99% (active)"),
]

For every item below, please supply its growth inhibition.
1. CN(C)CCC(=O)c1c[nH]c2ccccc12
2. O=C1OC(c2ccc(Cl)cc2)Sc2ccccc21 (centres undefined)
3. CC[N+]1(C)CCC(O)(/C=C/c2ccc(Cl)c(Cl)c2)C(C(=O)/C=C/c2ccc(Cl)c(Cl)c2)C1 (centres undefined)
4. CN(C)/N=N/c1nc[nH]c1C(N)=O
5. Cc1cc(NC(=S)SCc2ccc(Cl)cc2)ccc1Cl

["-35% (inactive)", "96% (active)", "99% (active)", "46% (inactive)", "99% (active)"]

###

RUN_DESCRIPTION: NCI Yeast Anticancer Drug Screen. Data for the rad18 strain (AID 177)
CONDITION_SET: S. cerevisiae rad18 mutant growth inhibition; at 3.7 µM
This is part of a sample that, as a whole, favours compounds with a hit. Of some 79,000 tested, about 15% had one in any assay. Calls of active or inactive are those of the source. Rule as the data show it: active = growth inhibition above about 70%; inactive = the rest.
Choose the fitting class; nothing outside 1 = active, 0 = inactive is accepted.

Example cases with answers are listed next.
# SMILES_CODE, LABEL_VALUE
data = [
    ("O=C(N/N=C/c1ccc2c(c1)CCC2)c1ccccc1[N+](=O)[O-]", 0),
    ("COc1ccc(C(=O)NCCN(C)C)c2nc3ccccc3cc12", 0),
    ("BrC/C=C/C[P+](c1ccccc1)(c1ccccc1)c1ccccc1", 0),
    ("CCCCOc1ccc(Nc2c3ccccc3nc3ccccc23)cc1", 0),
    ("COc1ccc(/C=C2\\S/C(=N/Nc3nc(-c4ccccc4)cs3)NC2=O)cc1OC", 1),
]

Next, consider the following compound.
Assay outcome for `Cc1nc2ccc(NCCN(C)C)c3c(=O)c4ccccc4n1c23` : what was it?
0

###

RUN_DESCRIPTION: NCI Yeast Anticancer Drug Screen. Data for the cln2 rad14 strain (AID 165);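 note: 0% = growth equal to vehicle treated cultures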
CONDITION_SET: S. cerevisiae cln2 rad14 strain, at 50.0 µM
Compounds without any hit were thinned out: in the full panel of roughly 79,000, 15% have a hit. The source made the active and inactive calls. Rule as the data show it: active = growth inhibition above about 70%; inactive = the rest.
Choose the fitting class; nothing outside 1.0 for active, 0.0 for inactive is accepted.

# MOLECULE, LABEL_VALUE
records = [
    ("CCOc1ccc2ccc3cccnc3c2n1", 0.0),
    ("NCC(O)CSCc1ccc(Cl)cc1 (stereo unspecified)", 1.0),
    ("CCC(C)/C(C)=N/NC(N)=O (stereo unspecified)", 0.0),
    ("CCCCCCC(CCl)c1sc(-c2csc(CCNC(=O)OC(C)(C)C)n2)nc1C(=O)OC (stereo unspecified)", 0.0),
]

Assay outcome for `Cc1ccc(C(C)C)c(C(=C2C=CC(=[N+](C)C)C=C2)c2c(C(C)C)ccc(C)c2O)c1O` : what was it?
1.0

Assay outcome for `COc1ccc(C(=O)NCCN(C)C)c2nc3ccccc3cc12` : what was it?
0.0

###

Provide the recorded growth inhibition for the entries that follow.
RUN_DESCRIPTION: NCI Yeast Anticancer Drug Screen. Data for the mlh1 rad18 strain (AID 175)
CONDITION_SET: S. cerevisiae mlh1 rad18 strain growth inhibition; at 5.0 µM (retest, dose inferred, filed as 0.5); hits give high values
About 79,000 compounds went through this panel and 15% of them were active in at least one assay; those are over-represented in the sample as a whole. Starred links: 1 amine or outer side, 2 acyl side, 3 side chain; linkers in the order of their positions; H or OH if unused. Positions of bridges follow the written chain, without caps; N, C: chain ends. Non-standard residues stand in square brackets, D forms with d. Residues, ends and D or L forms follow the SMILES beside them. Chains are numbered I, II in the order given. Actinocin(9to1) = Cc1c2oc3c(C)ccc(C(=O)[*:1])c3nc-2c(C(=O)[*:2])c(N)c1=O; aThr = C[C@H](O)[C@H](N)C(=O)O; NMeV = CN[C@H](C(=O)O)C(C)C; Sar = CNCC(=O)O
Answers are plain numbers, in %.

Consider the worked cases shown below.
# COMPOUND, OUTPUT_UNIT, READOUT_NUMBER
data = [
    ("O=S(=O)(O)c1ccc2c(N=Nc3c(O)ccc4ccccc34)cccc2c1", "%", 9),
    ("CCCCCCCCCCCCCCCCOCC(Cl)COP(=O)(O)OP(=O)(O)OCC1OC(n2cnc3c(N)ncnc32)C(O)C1O (stereo not drawn)", "%", 36),
    ("O=C1c2ccccc2C2CCC1c1ccccc12 (stereo not drawn)", "%", -45),
    ("Oc1ccc(Br)cc1C=Nc1cccc(C(F)(F)F)c1", "%", 48),
    ("Cc1cnccc1N=Nc1ccc(N(C)C)cc1", "%", -95),
    ("CC(O)CN1C(=O)c2cccc3cc([N+](=O)[O-])cc(c23)C1=O (stereo not drawn)", "%", 25),
    ("Cc1c2oc3c(C)ccc(C(=O)N[C@@H]4C(=O)N[C@H](C(C)C)C(=O)N5CCC[C@H]5C(=O)N(C)CC(=O)N(C)[C@@H](C(C)C)C(=O)O[C@H]4C)c3nc-2c(C(=O)N[C@@H]2C(=O)N[C@H](C(C)C)C(=O)N3CCC[C@H]3C(=O)N(C)CC(=O)N(C)[C@@H](C(C)C)C(=O)O[C@H]2C)c(N)c1=O (I: [aThr][dV]P[Sar][NMeV] / II: [aThr][dV]P[Sar][NMeV]; ester I:1-I:C, II:1-II:C; linker I:N-II:N via Actinocin(9to1))", "%", 61),
    ("CC(C)c1ccc(C2NC(=S)NC3=C2c2ccccc2C3=O)cc1 (stereo not drawn)", "%", -36),
]

For every item below, please supply its growth inhibition.
1. CCCCCCCCCCCCOC1C(COCCN2CCCC2)OC2OC(C)(C)OC21 (stereo not drawn)
2. CC[N+]1(C)CCC(O)(/C=C/c2ccc(Cl)c(Cl)c2)C(C(=O)/C=C/c2ccc(Cl)c(Cl)c2)C1 (stereo not drawn)
3. CC1=NN(C(=O)CC(=O)N(C(=O)c2ccccc2)c2ccc(Cl)cc2)C(=O)C1N=Nc1ccc([N+](=O)[O-])cc1 (stereo not drawn)
4. CCOC(=O)c1sc2[n+](c1C)C(=O)/C(=C/c1cc(OC)c(OC)c(OC)c1)S2
5. OC1C#CCSCC#C/C=C\1 (stereo not drawn)

1: 16; 2: 82; 3: 24; 4: 6; 5: 62

For every item below, please supply its growth inhibition.
1. Cc1cc(N(CCOS(C)(=O)=O)CCOS(C)(=O)=O)ccc1C=O
2. O=c1[nH]cc(F)c(=O)[nH]1
3. CCc1nc2ccc(N=Nc3c(O)ccc4ccccc34)cc2[nH]1
4. CC(=O)O/N=C/c1c2ccccc2cc2ccccc12
5. CC[C@@]1(OC(=O)CN(C)C)C(=O)OCc2c1cc1n(c2=O)Cc2cc3ccccc3nc2-1

1. 56
2. 16
3. -22
4. 80
5. 36
